tested.system: 5-hydroxytryptamine receptor 1A (Rattus norvegicus)
Sequence (P19327 whole entry): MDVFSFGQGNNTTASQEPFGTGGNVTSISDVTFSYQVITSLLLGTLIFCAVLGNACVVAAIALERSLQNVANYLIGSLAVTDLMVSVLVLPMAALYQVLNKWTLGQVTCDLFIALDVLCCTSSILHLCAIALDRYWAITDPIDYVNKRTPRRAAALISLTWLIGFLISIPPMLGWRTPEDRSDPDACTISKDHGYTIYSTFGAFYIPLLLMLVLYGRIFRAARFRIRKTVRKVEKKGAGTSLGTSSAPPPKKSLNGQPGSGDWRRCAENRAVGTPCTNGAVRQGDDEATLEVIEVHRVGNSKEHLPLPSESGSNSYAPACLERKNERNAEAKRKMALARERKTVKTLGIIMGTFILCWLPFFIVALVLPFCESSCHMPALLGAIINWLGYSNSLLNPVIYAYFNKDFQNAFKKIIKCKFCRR
pKi: −log10 of the molar value.
molecules and their reported pKi
readout.name: pKi

smiles.str	tested.system	val
COc1ccc2c(c1OCCNC[C@H]1COc3ccccc3O1)CCCC2	5-hydroxytryptamine receptor 1A (Rattus norvegicus)	8.07
COc1cccc(OC)c1OCCNC[C@@H]1COc2ccccc2O1	5-hydroxytryptamine receptor 1A (Rattus norvegicus)	7.39
COc1ccc2ccccc2c1OCCNC[C@@H]1COc2cc3c(cc2O1)CCCC3	5-hydroxytryptamine receptor 1A (Rattus norvegicus)	5.44
COc1ccc2ccccc2c1OCCNC[C@@H]1COc2ccccc2O1	5-hydroxytryptamine receptor 1A (Rattus norvegicus)	7.17

* * *

tested.system: Alpha-1D adrenergic receptor (Homo sapiens, UniProt P25100)
Sequence (P25100 whole entry): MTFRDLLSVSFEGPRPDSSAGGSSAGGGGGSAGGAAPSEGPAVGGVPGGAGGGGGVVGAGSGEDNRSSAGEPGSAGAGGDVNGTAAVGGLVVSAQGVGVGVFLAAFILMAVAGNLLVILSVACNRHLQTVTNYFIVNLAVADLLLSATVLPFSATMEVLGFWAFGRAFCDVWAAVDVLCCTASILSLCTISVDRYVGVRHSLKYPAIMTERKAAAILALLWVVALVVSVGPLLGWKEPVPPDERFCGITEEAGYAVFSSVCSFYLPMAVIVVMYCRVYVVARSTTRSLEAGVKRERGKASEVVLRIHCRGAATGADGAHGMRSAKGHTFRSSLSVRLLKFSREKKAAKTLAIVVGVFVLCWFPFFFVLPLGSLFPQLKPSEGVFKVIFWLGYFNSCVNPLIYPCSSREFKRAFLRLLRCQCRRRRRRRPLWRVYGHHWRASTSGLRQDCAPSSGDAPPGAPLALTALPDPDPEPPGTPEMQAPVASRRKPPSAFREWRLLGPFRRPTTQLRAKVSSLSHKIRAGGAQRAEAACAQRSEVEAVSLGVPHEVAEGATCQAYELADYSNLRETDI
compounds and their reported log10 Ki
readout.name: log10 Ki (log10 of the value in nM)

smiles.str	readout.name	val
COc1ccc2ccccc2c1OCCNC[C@H]1COc2ccccc2O1	log10 Ki	0.82
COc1cccc(-c2ccccc2)c1OCCNC[C@H]1COc2ccccc2O1	log10 Ki	0.53
COc1cccc(OC)c1OCCNC[C@H]1COc2cc3ccccc3cc2O1	log10 Ki	2.62
COc1cccc(OC)c1OCCNC[C@H]1COc2cc3c(cc2O1)CCCC3	log10 Ki	2.53
COc1cccc(OC)c1OCCNC[C@@H]1COc2cc3c(cc2O1)CCCC3	log10 Ki	2.31
COc1ccc(-c2ccccc2)cc1OCCNC[C@H]1COc2ccccc2O1	log10 Ki	1.18
